All values here come from ChEMBL document CHEMBL1132212.

- Test system: Canis familiaris
- TEST_DESCRIPTION: Area under curve (AUC) was determined in dogs fed after oral administration of 25 mg/kg of the compound
- Format: ADME, organism-based, Canis lupus familiaris
- Parameters: dose 25 mg/kg, route oral
- EXPERIMENTAL_CONTEXT: dog, in vivo
MEASURED_PROPERTY: AUC (µM·min)
One number for each entry, in µM·min.

Short answer for Cc1ccccc1CNC(=O)[C@H]1N(C(=O)[C@@H](O)[C@H](Cc2ccccc2)NC(=O)c2cccc(O)c2C)CSC1(C)C : AUC was 1010

====

Please respond with reported Ki for every item in the list.
- EXPERIMENTAL_SYSTEM: UniProt Q72874
- TEST_DESCRIPTION: Inhibition of recombinant HIV-1 protease (NY-5)
Numbers only, in nM.

Worked set:
[
  {
    "SMILES_INPUT": "Cc1cccc(C)c1OCC(=O)N[C@@H](Cc1ccccc1)[C@H](O)C(=O)N1CSC[C@H]1C(=O)NC(C)(C)C",
    "REPORTED_VALUE": 21.7
  },
  {
    "SMILES_INPUT": "CCc1c(O)cccc1C(=O)N[C@@H](Cc1ccccc1)[C@H](O)C(=O)N1CSC(C)(C)[C@H]1C(=O)NCc1ccccc1C",
    "REPORTED_VALUE": 0.19
  },
  {
    "SMILES_INPUT": "Cc1ccccc1CNC(=O)[C@H]1N(C(=O)[C@@H](O)[C@H](Cc2ccccc2)NC(=O)c2cccc(O)c2C)CSC1(C)C",
    "REPORTED_VALUE": 0.33
  },
  {
    "SMILES_INPUT": "Cc1c(O)cccc1C(=O)N[C@@H](Cc1ccccc1)[C@H](O)C(=O)N1CSC[C@H]1C(=O)NCc1ccccc1",
    "REPORTED_VALUE": 59
  },
  {
    "SMILES_INPUT": "Cc1cccc(C)c1OCC(=O)N[C@@H](Cc1ccccc1)[C@H](O)C(=O)N1CSC(C)(C)[C@H]1C(=O)NC(C)(C)C",
    "REPORTED_VALUE": 1.4
  },
  {
    "SMILES_INPUT": "Cc1c(O)cccc1C(=O)N[C@@H](Cc1ccccc1)[C@H](O)C(=O)N1CSC(C)(C)[C@H]1C(=O)NCc1ccccc1Cl",
    "REPORTED_VALUE": 0.29
  }
]

The following compounds each have a reported value; give each one's Ki.
1. Cc1c(O)cccc1C(=O)N[C@@H](Cc1ccccc1)[C@H](O)C(=O)N1CSC(C)(C)[C@H]1C(=O)NC(C)(C)C
2. Cc1cccc(C)c1CNC(=O)[C@@H]1CSCN1C(=O)[C@@H](O)[C@H](Cc1ccccc1)NC(=O)c1cccc(O)c1C
3. CS[C@H](NC(=O)COc1cccc2cnccc12)C(=O)N[C@@H](Cc1ccccc1)[C@H](O)C(=O)N1CSC(C)(C)[C@H]1C(=O)NC(C)(C)C
4. CCc1c(O)cccc1C(=O)N[C@@H](Cc1ccccc1)[C@H](O)C(=O)N1CSC[C@H]1C(=O)NC(C)(C)C
5. CCc1c(O)cccc1C(=O)N[C@@H](Cc1ccccc1)[C@H](O)C(=O)N1CSC(C)(C)[C@H]1C(=O)NC(C)(C)C
6. Cc1ccccc1CNC(=O)[C@@H]1CSCN1C(=O)[C@@H](O)[C@H](Cc1ccccc1)NC(=O)c1cccc(O)c1C
7. Cc1c(O)cccc1C(=O)N[C@@H](Cc1ccccc1)[C@H](O)C(=O)N1CSC[C@H]1C(=O)NC(C)(C)C

## Result
1. 5.14
2. 4.8
3. 0.088
4. 22.2
5. 2.24
6. 8.9
7. 24.9

Short answer for CS[C@H](NC(=O)COc1cccc2cnccc12)C(=O)N[C@@H](Cc1ccccc1)[C@H](O)C(=O)N1CSC[C@H]1C(=O)NC(C)(C)C : Ki was 0.74
